Every entry's value here was drawn from ChEMBL document CHEMBL3352696.

- Test system: Proteasome
- assay procedure: Inhibition of chymotrypsin-like activity of constitutive proteasome (unknown origin) using Suc-LLVY-AMC as substrate at 5 uM after 90 mins by fluorescence assay
- Format: subcellular
- condition set: Homo sapiens
Residues, ends and D or L forms follow the SMILES beside them. *: point of attachment. Fmoc = O=C(OCC1c2ccccc2-c2ccccc21)*
outcome measure: inhibition (%)

Worked cases, answers included:
INSERT INTO measurements (molecule, outcome_measure, uom, experimental_result) VALUES
  ('O=C1CN(/N=C/c2ccc(-c3ccc(Cl)cc3)o2)C(=O)N1CCCCN1CCN(C[C@@H](O)c2ccccc2)CC1', 'inhibition', '%', 16),
  ('Cc1ccc(CSC[C@@H](NC(=O)c2cc(-c3ccccc3)nc3ccccc23)C(=O)NCCCN2CCCC2=O)cc1', 'inhibition', '%', 15),
  ('NC(=O)CC[C@H](NC(=O)[C@H](Cc1cnc[nH]1)NC(=O)OCC1c2ccccc2-c2ccccc21)C(=O)N1CCC[C@H]1C(=O)O (Fmoc-His-Gln-Pro-OH)', 'inhibition', '%', 24),
  ('CCCCc1ccc2nc(-c3ccc(OC)cc3)cc(C(=O)NC[C@@H](C)C(=O)N3CCC[C@@H]3CO)c2c1', 'inhibition', '%', 2),
  ('CCC[C@H]1C[C@H](C(=O)N[C@@H]([C@@H]2O[C@H](SC)[C@@H](O)[C@@H](O)[C@@H]2O)[C@@H](C)O)N(C)C1', 'inhibition', '%', 2),
  ('Cc1cccc(Nc2ccccc2C(=O)N[C@H](CC[S@+](C)[O-])C(=O)N[C@H](C)c2ccc(F)cc2)c1C', 'inhibition', '%', 33),
  ('CC[C@@H](NC(=O)[C@@H](CC(C)C)NC(=O)OCc1ccccc1)C(=O)C(=O)NCCCN1CCOCC1', 'inhibition', '%', 6);

A: O=C(C[C@@H]1CCN(CC2CC2)C[C@@H]1[C@H]1CC(c2ccccc2Cl)=NO1)NCCc1ccccn1
B: Cc1ccc(-c2cc(C(=O)NC[C@@H]3CCCO3)c3cc(CNS(=O)(=O)c4cccc(Cl)c4)ccc3n2)o1
Min inhibition? A | B # answer = label of selected item
A

###

- Species: Homo sapiens
- assay procedure: Inhibition of chymotrypsin-like activity of human 20S immunoproteasome using Suc-LLVY-AMC as substrate at 5 uM after 90 mins by fluorescence assay
Residues, ends and D or L forms follow the SMILES beside them. *: point of attachment. Fmoc = O=C(OCC1c2ccccc2-c2ccccc21)*
outcome measure: inhibition (%)

INSERT INTO results (compound, experimental_result) VALUES
  ('Cc1cccc(Nc2ccccc2C(=O)N[C@H](CC[S@+](C)[O-])C(=O)N[C@H](C)c2ccc(F)cc2)c1C', 31),
  ('O=C1CN(/N=C/c2ccc(-c3ccc(Cl)cc3)o2)C(=O)N1CCCCN1CCN(C[C@@H](O)c2ccccc2)CC1', 25),
  ('O=C(C[C@@H]1CCN(CC2CC2)C[C@@H]1[C@H]1CC(c2ccccc2Cl)=NO1)NCCc1ccccn1', 13),
  ('CCCCc1ccc2nc(-c3ccc(OC)cc3)cc(C(=O)NC[C@@H](C)C(=O)N3CCC[C@@H]3CO)c2c1', 21),
  ('CCC[C@H]1C[C@H](C(=O)N[C@@H]([C@@H]2O[C@H](SC)[C@@H](O)[C@@H](O)[C@@H]2O)[C@@H](C)O)N(C)C1', 36),
  ('Cc1ccc(-c2cc(C(=O)NC[C@@H]3CCCO3)c3cc(CNS(=O)(=O)c4cccc(Cl)c4)ccc3n2)o1', 85);

a: NC(=O)CC[C@H](NC(=O)[C@H](Cc1cnc[nH]1)NC(=O)OCC1c2ccccc2-c2ccccc21)C(=O)N1CCC[C@H]1C(=O)O (Fmoc-His-Gln-Pro-OH)
b: Cc1ccc(CSC[C@@H](NC(=O)c2cc(-c3ccccc3)nc3ccccc23)C(=O)NCCCN2CCCC2=O)cc1
c: CC[C@@H](NC(=O)[C@@H](CC(C)C)NC(=O)OCc1ccccc1)C(=O)C(=O)NCCCN1CCOCC1
Hey, quick one: sort these by inhibition, largest value first please. List labels; respect the requested ordering.
b, a, c
(b: 62%, a: 35%, c: 14%)
